Exercise: for every item that follows, state its recorded EC50.
# Test target: mu receptor-β-arrestin 2 interaction (Homo sapiens, UniProt P35372)
# Procedure details: BRET mu-β-arrestin 2 interaction assay (living SH-SY5Y cells, mu-RLuc/β-arrestin 2-RGFP), agonism
Non-standard residues stand in square brackets, D forms with d. Residues, ends and D or L forms follow the SMILES beside them. Dmt = Cc1cc(O)cc(C)c1C[C@H](N)C(=O)O; d(β3hA) = C[C@@H](N)CC(=O)O
Please state the figure in nM; there is no need to write the unit.

Input: Return EC50 for the following molecule: Cc1cc(O)cc(C)c1C[C@H](N)C(=O)NC[C@@H](C)C(=O)N[C@@H](Cc1ccccc1)C(=O)N[C@@H](Cc1ccccc1)C(N)=O [analog 7, Dmt-(R)-β ^ 2 -Ala-Phe-Phe-NH2]
Output: 19.1

Input: Return EC50 for the following molecule: C[C@H](CNC(=O)[C@@H](N)Cc1ccc(O)cc1)C(=O)N[C@@H](Cc1ccccc1)C(=O)N[C@@H](Cc1ccccc1)C(N)=O [analog 6, Tyr-(R)-β ^ 2 -Ala-Phe-Phe-NH2]
Output: 14100

Input: Return EC50 for the following molecule: C[C@H](CC(=O)N[C@@H](Cc1ccccc1)C(=O)N[C@@H](Cc1ccccc1)C(N)=O)NC(=O)[C@@H](N)Cc1ccc(O)cc1 [analog 8, Tyr-(R)-β ^ 3 -Ala-Phe-Phe-NH2] (H-Y[d(β3hA)]FF-NH2; N-terminus assumed)
Output: 77.6

Input: Return EC50 for the following molecule: NC(=O)[C@H](Cc1ccccc1)NC(=O)C[C@@H](Cc1cccc2ccccc12)NC(=O)[C@@H]1CCCN1C(=O)[C@@H](N)Cc1ccc(O)cc1 [analog 12, Tyr-Pro-(R)-β ^ 3 -1-Nal-Phe-NH2]
Output: 145

Input: Return EC50 for the following molecule: Cc1cc(O)cc(C)c1C[C@H](N)C(=O)N1CCC[C@H]1C(=O)N[C@@H](Cc1ccccc1)C(=O)N[C@@H](Cc1ccccc1)C(N)=O
Output: 11.7

Input: Return EC50 for the following molecule: Cc1cc(O)cc(C)c1C[C@H](N)C(=O)N[C@H](C)CC(=O)N[C@@H](Cc1ccccc1)C(=O)N[C@@H](Cc1ccccc1)C(N)=O [analog 9, Dmt-(R)-β ^ 3 -Ala-Phe-Phe-NH2] (H-[Dmt][d(β3hA)]FF-NH2; N-terminus assumed)
Output: 2.14

Input: Return EC50 for the following molecule: NC(=O)[C@H](Cc1ccccc1)NC(=O)[C@H](Cc1ccccc1)NC(=O)[C@@H]1CCCN(C(=O)[C@@H](N)Cc2ccc(O)cc2)C1 [analog 4, Tyr-(R)-Nip-Phe-Phe-NH2]
Output: 43.7

Input: Return EC50 for the following molecule: Cc1cc(O)cc(C)c1C[C@H](N)C(=O)N1CCC[C@H]1C(=O)N[C@@H](CC(=O)N[C@@H](Cc1ccccc1)C(N)=O)Cc1cccc2ccccc12 [analog 13, Dmt-Pro-(R)-β ^ 3 -1-Nal-Phe-NH2]
Output: 4.37

Input: Return EC50 for the following molecule: Cc1cc(O)cc(C)c1C[C@H](N)C(=O)N1CCC[C@@H](C(=O)N[C@@H](Cc2ccccc2)C(=O)N[C@@H](Cc2ccccc2)C(N)=O)C1 [analog 5, Dmt-(R)-Nip-Phe-Phe-NH2]
Output: 3.63

* * *

Exercise: for every item that follows, state its recorded Kb.
# Test target: mu receptor-β-arrestin 2 interaction (Homo sapiens)
# Procedure details: cell-based
# Design: expressed in transfected cells
# Stated conditions: read-out: pKb (CL95%) (converted)
Could you write the number and then its unit?

Input: Return Kb for the following compound: Cc1cc(O)cc(C)c1C[C@H](N)C(=O)N1CCC[C@H]1C(=O)NC[C@@H](Cc1cccc2ccccc12)C(=O)N[C@@H](Cc1ccccc1)C(N)=O [analog 11, Dmt-Pro-(R)-β ^ 2 -1-Nal-Phe-NH2]
Output: 0.398 nM

Input: Return Kb for the following compound: Cc1cc(O)cc(C)c1C[C@H](N)C(=O)N1CCCC[C@@H]1C(=O)N[C@@H](Cc1ccccc1)C(=O)N[C@@H](Cc1ccccc1)C(N)=O [analog 3, Dmt-(R)-Pip-Phe-Phe-NH2]
Output: 0.0794 nM

Input: Return Kb for the following compound: NC(=O)[C@H](Cc1ccccc1)NC(=O)[C@@H](CNC(=O)[C@@H]1CCCN1C(=O)[C@@H](N)Cc1ccc(O)cc1)Cc1cccc2ccccc12 [analog 10, Tyr-Pro-(R)-β ^ 2 -1-Nal-Phe-NH2]
Output: 631 nM

Input: Return Kb for the following compound: NC(=O)[C@H](Cc1ccccc1)NC(=O)[C@H](Cc1ccccc1)NC(=O)[C@H]1CCCCN1C(=O)[C@@H](N)Cc1ccc(O)cc1 [analog 2, Tyr-(R)-Pip-Phe-Phe-NH2]
Output: 170 nM

* * *

# Test target: human recombinant mu opioid receptor (Homo sapiens, UniProt P35372)
# Construct: purchased; host or cells: CHO cells (membranes)
# Sequence (P35372 whole entry): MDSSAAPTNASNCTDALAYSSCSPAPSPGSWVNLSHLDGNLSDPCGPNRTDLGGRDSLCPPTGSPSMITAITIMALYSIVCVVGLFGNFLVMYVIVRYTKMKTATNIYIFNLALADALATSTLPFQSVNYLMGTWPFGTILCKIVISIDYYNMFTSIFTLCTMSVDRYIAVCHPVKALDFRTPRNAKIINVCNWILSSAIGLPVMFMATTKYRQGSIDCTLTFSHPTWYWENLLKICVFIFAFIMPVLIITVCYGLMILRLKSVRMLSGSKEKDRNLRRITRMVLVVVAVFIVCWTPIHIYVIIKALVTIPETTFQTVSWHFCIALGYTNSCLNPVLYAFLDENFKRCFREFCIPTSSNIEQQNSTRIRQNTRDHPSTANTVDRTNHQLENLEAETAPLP
# Procedure details: Radioligand binding, [3H]DAMGO displacement, CHO cell membranes
Non-standard residues stand in square brackets, D forms with d. Residues, ends and D or L forms follow the SMILES beside them. Dmt = Cc1cc(O)cc(C)c1C[C@H](N)C(=O)O; d(β3hA) = C[C@@H](N)CC(=O)O
Outcome measure: Ki (nM)
Please state the figure in nM; there is no need to write the unit.

Input: Return Ki for the following compound: Cc1cc(O)cc(C)c1C[C@H](N)C(=O)N[C@H](C)CC(=O)N[C@@H](Cc1ccccc1)C(=O)N[C@@H](Cc1ccccc1)C(N)=O [analog 9, Dmt-(R)-β ^ 3 -Ala-Phe-Phe-NH2] (H-[Dmt][d(β3hA)]FF-NH2; N-terminus assumed)
Output: 0.14

Input: Return Ki for the following compound: Cc1cc(O)cc(C)c1C[C@H](N)C(=O)NC[C@@H](C)C(=O)N[C@@H](Cc1ccccc1)C(=O)N[C@@H](Cc1ccccc1)C(N)=O [analog 7, Dmt-(R)-β ^ 2 -Ala-Phe-Phe-NH2]
Output: 0.31

Input: Return Ki for the following compound: Cc1cc(O)cc(C)c1C[C@H](N)C(=O)N1CCC[C@H]1C(=O)N[C@@H](Cc1ccccc1)C(=O)N[C@@H](Cc1ccccc1)C(N)=O [analog 1, Dmt-Pro-Phe-Phe-NH2]
Output: 0.54

Input: Return Ki for the following compound: C[C@H](CC(=O)N[C@@H](Cc1ccccc1)C(=O)N[C@@H](Cc1ccccc1)C(N)=O)NC(=O)[C@@H](N)Cc1ccc(O)cc1 [analog 8, Tyr-(R)-β ^ 3 -Ala-Phe-Phe-NH2] (H-Y[d(β3hA)]FF-NH2; N-terminus assumed)
Output: 0.44

* * *

# Procedure details: Enzymatic degradation in rat brain homogenate
# Assay type: in vitro ADME
# Stated conditions: rat, pH 7.4, rat brain homogenate, 37°C, ln2/k, read-out: t1/2, degradation half-life
Non-standard residues stand in square brackets, D forms with d. Residues, ends and D or L forms follow the SMILES beside them. Dmt = Cc1cc(O)cc(C)c1C[C@H](N)C(=O)O; d(β3hA) = C[C@@H](N)CC(=O)O
Exercise: for every item that follows, state its recorded half-life at 0.25 mM.
Please state the figure in h; there is no need to write the unit.

Input: Return half-life at 0.25 mM for the following compound: NC(=O)[C@H](Cc1ccccc1)NC(=O)[C@@H](CNC(=O)[C@@H]1CCCN1C(=O)[C@@H](N)Cc1ccc(O)cc1)Cc1cccc2ccccc12 [analog 10, Tyr-Pro-(R)-β ^ 2 -1-Nal-Phe-NH2]
Output: 2.8

Input: Return half-life at 0.25 mM for the following compound: Cc1cc(O)cc(C)c1C[C@H](N)C(=O)N1CCC[C@@H](C(=O)N[C@@H](Cc2ccccc2)C(=O)N[C@@H](Cc2ccccc2)C(N)=O)C1 [analog 5, Dmt-(R)-Nip-Phe-Phe-NH2]
Output: 1.49

Input: Return half-life at 0.25 mM for the following compound: Cc1cc(O)cc(C)c1C[C@H](N)C(=O)N1CCC[C@H]1C(=O)N[C@@H](CC(=O)N[C@@H](Cc1ccccc1)C(N)=O)Cc1cccc2ccccc12 [analog 13, Dmt-Pro-(R)-β ^ 3 -1-Nal-Phe-NH2]
Output: 0.68

Input: Return half-life at 0.25 mM for the following compound: NC(=O)[C@H](Cc1ccccc1)NC(=O)[C@H](Cc1ccccc1)NC(=O)[C@H]1CCCCN1C(=O)[C@@H](N)Cc1ccc(O)cc1 [analog 2, Tyr-(R)-Pip-Phe-Phe-NH2]
Output: 2.02

Input: Return half-life at 0.25 mM for the following compound: NC(=O)[C@H](Cc1ccccc1)NC(=O)C[C@@H](Cc1cccc2ccccc12)NC(=O)[C@@H]1CCCN1C(=O)[C@@H](N)Cc1ccc(O)cc1 [analog 12, Tyr-Pro-(R)-β ^ 3 -1-Nal-Phe-NH2]
Output: 0.898

Input: Return half-life at 0.25 mM for the following compound: C[C@H](CC(=O)N[C@@H](Cc1ccccc1)C(=O)N[C@@H](Cc1ccccc1)C(N)=O)NC(=O)[C@@H](N)Cc1ccc(O)cc1 [analog 8, Tyr-(R)-β ^ 3 -Ala-Phe-Phe-NH2] (H-Y[d(β3hA)]FF-NH2; N-terminus assumed)
Output: 1.4

Input: Return half-life at 0.25 mM for the following compound: Cc1cc(O)cc(C)c1C[C@H](N)C(=O)NC[C@@H](C)C(=O)N[C@@H](Cc1ccccc1)C(=O)N[C@@H](Cc1ccccc1)C(N)=O [analog 7, Dmt-(R)-β ^ 2 -Ala-Phe-Phe-NH2]
Output: 2.26

Input: Return half-life at 0.25 mM for the following compound: Cc1cc(O)cc(C)c1C[C@H](N)C(=O)N1CCCC[C@@H]1C(=O)N[C@@H](Cc1ccccc1)C(=O)N[C@@H](Cc1ccccc1)C(N)=O [analog 3, Dmt-(R)-Pip-Phe-Phe-NH2]
Output: 1.57

Input: Return half-life at 0.25 mM for the following compound: Cc1cc(O)cc(C)c1C[C@H](N)C(=O)N1CCC[C@H]1C(=O)NC[C@@H](Cc1cccc2ccccc12)C(=O)N[C@@H](Cc1ccccc1)C(N)=O [analog 11, Dmt-Pro-(R)-β ^ 2 -1-Nal-Phe-NH2]
Output: 2.05

Input: Return half-life at 0.25 mM for the following compound: Cc1cc(O)cc(C)c1C[C@H](N)C(=O)N1CCC[C@H]1C(=O)N[C@@H](Cc1ccccc1)C(=O)N[C@@H](Cc1ccccc1)C(N)=O
Output: 0.347

Input: Return half-life at 0.25 mM for the following compound: Cc1cc(O)cc(C)c1C[C@H](N)C(=O)N[C@H](C)CC(=O)N[C@@H](Cc1ccccc1)C(=O)N[C@@H](Cc1ccccc1)C(N)=O [analog 9, Dmt-(R)-β ^ 3 -Ala-Phe-Phe-NH2] (H-[Dmt][d(β3hA)]FF-NH2; N-terminus assumed)
Output: 0.605
